B1: Zinc finger homeobox protein 3, residues 2147 to 2202; numbered along this chain, Q15911 (parent)
chain: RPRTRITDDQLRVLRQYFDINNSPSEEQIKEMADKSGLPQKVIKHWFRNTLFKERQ

# Variants of: B1
# experimental.details: abundance fitness (aPCA) (normalised: wild type 0, dead -1); higher = more abundant; growth selection in yeast, the domain comes from the species named
# test.context: Homo sapiens
Parameter threshold = -0.2. Response is Fulfilled when abundance fitness meets or exceeds it, else Not fulfilled.

Use these answered entries as a reference point.
Does abundance fitness meet or surpass -0.2 for M32Q ?
Not fulfilled

Would you say P39Y shows abundance fitness at minimum -0.2?
Not fulfilled

Decide: abundance fitness of N21S >= -0.2?
Fulfilled

More entries:
Entry E26P : is its abundance fitness no less than -0.2?
Fulfilled

Is abundance fitness at least -0.2? Consider V13Q
Fulfilled

Identify whether the reported abundance fitness of the following variant is -0.2 or greater: E27T
Fulfilled

Assess whether reported abundance fitness for S36R sits at -0.2 or higher.
Not fulfilled

Determine whether this variant has abundance fitness no lower than -0.2: I29A
Not fulfilled

Ref: the Human Domainome abundance scans (Beltran et al. 2025)
